assay: PMM cytotoxicity assay; type: cell-based; details: mouse, primary peritoneal mouse macrophages (PMM); Table 2; geometric mean of at least three independent assays

[
  {
    "molecule": "Cc1c(C(=O)Nc2ccc3c(c2)B(O)OC3)nnn1-c1ccccn1",
    "EC50 at 3 days": "> 64 µM"
  },
  {
    "molecule": "CCCCCCCCCCCCCCCCOP(=O)([O-])OCC[N+](C)(C)C [miltefosine, reference compound]",
    "EC50 at 3 days": "33 µM"
  },
  {
    "molecule": "CC1(C)OB(O)c2cc(NC(=O)c3ccc(F)cc3C(F)(F)F)ccc21 [Compound 1, acoziborole, reference compound]",
    "EC50 at 3 days": "> 64 µM"
  },
  {
    "molecule": "O=C(Nc1ccc2c(c1)B(O)OC2)c1ccc(F)cc1C(F)(F)F",
    "EC50 at 3 days": "> 64 µM"
  }
]

Origin of values: paper PMC8591608
